test system: Staphylococcus aureus; experiment: Antibacterial activity against Staphylococcus aureus ATCC 13709 in cation adjusted Mueller-Hinton broth by […] assay; type: functional
Recorded metric: MIC

Lookup: State, in one line, measured MIC of CN[C@H](CC(C)C)C(=O)N[C@H]1C(=O)N[C@@H](CC(N)=O)C(=O)N[C@H]2C(=O)N[C@H]3C(=O)N[C@H](C(=O)N[C@H](C(=O)OCC(=O)NC(P(=O)(O)O)P(=O)(O)O)c4cc(O)cc(O)c4-c4cc3ccc4O)[C@H](O)c3cc(Cl)c(c(Cl)c3)Oc3cc2cc(c3O[C@H]2O[C@@H](CO)[C@@H](O)[C@H](O)[C@H]2O[C@@H]2C[C@@](C)(N)[C@@H](O)[C@@H](C)O2)Oc2ccc(cc2Cl)[C@H]1O
Found: 16 mg/L

----------
species: Oryctolagus cuniculus; assay: Binding affinity to rabbit bone assessed as drug level bound to bone powder at 0.25 to 4 ug/ml after 24 hrs; format: tissue-based; conditions: Bone element
Recorded metric: Activity

Examples from the recorded data:
{"Smiles data": "CC(C)C[C@H](C(=O)N[C@H]1C(=O)N[C@@H](CC(N)=O)C(=O)N[C@H]2C(=O)N[C@H]3C(=O)N[C@H](C(=O)N[C@H](C(=O)O)c4cc(O)cc(O)c4-c4cc3ccc4O)[C@H](O[C@H]3C[C@](C)(N)[C@@H](O)[C@H](C)O3)c3cc(Cl)c(c(Cl)c3)Oc3cc2cc(c3O[C@H]2O[C@@H](CO)[C@@H](O)[C@H](O)[C@H]2O[C@@H]2C[C@@](C)(NCc3ccc(-c4ccc(Cl)cc4)cc3)[C@@H](O)[C@@H](C)O2)Oc2ccc(cc2Cl)[C@H]1O)N(C)C(=O)OCOC(=O)CCCC(P(=O)(O)O)P(=O)(O)O", "Activity": "99.9%"}
{"Smiles data": "CC(C)C[C@H](C(=O)N[C@H]1C(=O)N[C@@H](CC(N)=O)C(=O)N[C@H]2C(=O)N[C@H]3C(=O)N[C@H](C(=O)N[C@H](C(=O)O)c4cc(O)cc(O)c4-c4cc3ccc4O)[C@H](O[C@H]3C[C@](C)(N)[C@@H](O)[C@H](C)O3)c3cc(Cl)c(c(Cl)c3)Oc3cc2cc(c3O[C@H]2O[C@@H](CO)[C@@H](O)[C@H](O)[C@H]2O[C@@H]2C[C@@](C)(NCc3ccc(-c4ccc(Cl)cc4)cc3)[C@@H](O)[C@@H](C)O2)Oc2ccc(cc2Cl)[C@H]1O)N(C)C(=O)OCOC(=O)CCC(P(=O)(O)O)P(=O)(O)O", "Activity": "96.9%"}

Then there is this compound:
Lookup: State, in one line, measured Activity of CN[C@H](CC(C)C)C(=O)N[C@H]1C(=O)N[C@@H](CC(N)=O)C(=O)N[C@H]2C(=O)N[C@H]3C(=O)N[C@H](C(=O)N[C@H](C(=O)OCC(=O)Nc4ccc(CC(P(=O)(O)O)P(=O)(O)O)cc4)c4cc(O)cc(O)c4-c4cc3ccc4O)[C@H](O)c3cc(Cl)c(c(Cl)c3)Oc3cc2cc(c3O[C@H]2O[C@@H](CO)[C@@H](O)[C@H](O)[C@H]2O[C@@H]2C[C@@](C)(N)[C@@H](O)[C@@H](C)O2)Oc2ccc(cc2Cl)[C@H]1O
Found: 96.7%

----------
tested on: Staphylococcus aureus; test: Antibacterial activity against Staphylococcus aureus ATCC 13709 in cation adjusted Mueller-Hinton broth by […] assay in presence of 50% rat serum; format: functional
Recorded metric: MIC (µg/mL)
Hi! Could you send only the number? It should be in µg/mL, unit omitted.

Lookup: State, in one line, measured MIC of CC(C)C[C@H](C(=O)N[C@H]1C(=O)N[C@@H](CC(N)=O)C(=O)N[C@H]2C(=O)N[C@H]3C(=O)N[C@H](C(=O)N[C@H](C(=O)O)c4cc(O)cc(O)c4-c4cc3ccc4O)[C@H](O[C@H]3C[C@](C)(N)[C@@H](O)[C@H](C)O3)c3cc(Cl)c(c(Cl)c3)Oc3cc2cc(c3O[C@H]2O[C@@H](CO)[C@@H](O)[C@H](O)[C@H]2O[C@@H]2C[C@@](C)(NCc3ccc(-c4ccc(Cl)cc4)cc3)[C@@H](O)[C@@H](C)O2)Oc2ccc(cc2Cl)[C@H]1O)N(C)C(=O)CC(P(=O)(O)O)P(=O)(O)O
Found: 4
